Where these numbers come from: ChEMBL document CHEMBL1201862

# Test system: OVCAR-5
# protocol summary: NCI tumour cell line growth inhibition, 48 h
Activity calls are given as the source filed them. No stated cut-off is given here; in the data, active = GI50 up to about 1.1 µM and inactive = higher.
Write down the outcome that applies. Available outcomes: active, inactive

Below are worked cases with known answers.
Cc1cc(S(=O)(=O)Nc2nc3cccnc3[nH]2)c(S)cc1Cl ... inactive
FC(F)(F)c1ccc2c(c1)N(CCCNCCN1CCOCC1)c1ccccc1S2 ... inactive
CC(=O)NNc1nc(C)c(C(/C=C/c2ccc3c(c2)OCO3)=N/Nc2ccccc2)s1 ... inactive
Cc1cccc(C)c1NC(=O)CCc1nnc2s/c(=C\c3ccc(N(C)C)cc3)c(=O)n12 ... inactive

INPUT: Recorded call for `N=C(N)SCCc1ccncc1` ?
OUTPUT: inactive

INPUT: Outcome? N#CC1CCCCOCCOCCOCCOCCOCCCCCC1=O (configuration not stated)
OUTPUT: inactive

INPUT: What did this assay record as the result for `C/C=C/c1c(O)c(=O)c2c(OC)cc(OC)c3c4c(OC)cc(OC)c5c(=O)c(O)c(/C=C/C)c(c1c23)c54` ?
OUTPUT: inactive
